- Test system: NCI-H226 lung
- assayText: NCI-60 one-dose screen, 48 h (100 = growth as untreated, 0 = no growth, -100 = all killed)
- experimentalParameters: 10 µM unless noted
This is part of a sample that, as a whole, favours compounds with a hit. Of some 83,000 tested, about 20% had one in any assay.
Reported growth values for a set of molecules
testReadout: growth (%)

- molecule: "COc1ccc(C(=O)/C=C/c2ccc(C)cc2)cc1S(N)(=O)=O"
  testSystem: "NCI-H226 lung"
  testReadout: "growth"
  numericValue: 83
- molecule: "COc1cccc(/C=C/C(=O)/C=C(/C=C/c2cccc(OC)c2OC)OB(F)F)c1OC"
  testSystem: "NCI-H226 lung"
  testReadout: "growth"
  numericValue: 107
- molecule: "O=C(/C=C/c1cccc([N+](=O)[O-])c1)c1ccc(Nc2nc(Nc3ccc(F)cc3)nc(Nc3ccc(Cl)cc3)n2)cc1"
  testSystem: "NCI-H226 lung"
  testReadout: "growth"
  numericValue: 87.2
- molecule: "CC(C)(C)n1cc(-c2ccnc(NCCNS(=O)(=O)c3ccc(C(F)(F)F)cc3)c2)c(-c2ccccc2)n1"
  testSystem: "NCI-H226 lung"
  testReadout: "growth"
  numericValue: 89.4
- molecule: "O=C1/C(=C/c2cccc(Br)c2)COc2ccc(O)c(O)c21"
  testSystem: "NCI-H226 lung"
  testReadout: "growth"
  numericValue: 83.4
- molecule: "CCOC(=O)c1ccc2c(c1)[n+](=O)c(C(C)=O)c(C(F)(F)F)n2[O-]"
  testSystem: "NCI-H226 lung"
  testReadout: "growth"
  numericValue: 41.2
- molecule: "CC1=C([Se]CC(OC(=O)[C@@H](CO)NC(=O)OC(C)(C)C)C(=O)NCCCCCC(=O)OCc2ccccc2)C(=O)c2ccccc2C1=O (some centres undefined)"
  testSystem: "NCI-H226 lung"
  testReadout: "growth"
  numericValue: -85.4
- molecule: "COc1cc(OC)cc(C(=O)Nc2cnc(Nc3ccc(N4CCOCC4)nc3)nc2Oc2ccc(C(F)(F)F)cc2)c1"
  testSystem: "NCI-H226 lung"
  testReadout: "growth"
  numericValue: 39.9
- molecule: "CCCCCC(C)(O)C(C(=O)O)c1ccccc1 (centres undefined)"
  testSystem: "NCI-H226 lung"
  testReadout: "growth"
  numericValue: 104

* * *

- Test system: MDA-MB-231 breast
- assayText: NCI-60 one-dose screen, 48 h (100 = growth as untreated, 0 = no growth, -100 = all killed)
- experimentalParameters: 10 µM unless noted
About 83,000 compounds went through this panel and 20% of them were active in at least one assay; those are over-represented in the sample as a whole.
Class membership depends on growth alone; the intervals are range A (below 50%), range B (50% to below 90%), range C (90% or more)

- molecule: "Nc1ncnc2c1N=C(c1ccc([N+](=O)[O-])cc1)CC(c1ccc3c(c1)OCO3)N2 (stereo unspecified)"
  assignedCategory: "range B"
- molecule: "CN1CCN(CCCNC(=O)c2c3c(n4ccccc24)C(=O)c2ncccc2C3=O)CC1"
  assignedCategory: "range A"
- molecule: "CSc1nc(CC(C)C)c(C#N)c(=O)n1C"
  assignedCategory: "range A"
- molecule: "COc1cccc2cc(N(C)c3ncnc4ccccc34)ccc12"
  assignedCategory: "range A"
- molecule: "COc1ccc(-c2cn(Cc3ccc4c(Br)cc(Br)c(O)c4n3)nn2)cc1"
  assignedCategory: "range C"
- molecule: "O=C1Nc2ccccc2/C1=C/c1cccn1CCCCCCn1c2ccccc2c(=O)c2ccccc21"
  assignedCategory: "range B"
- molecule: "CCOC(=O)c1cnc2sc(-c3ccc(OC)cc3)nc2c1Cl"
  assignedCategory: "range C"
- molecule: "CCCCCCC/C=N/NC(=O)c1ccc(-n2cc(-c3ccccc3)nn2)cc1"
  assignedCategory: "range B"
- molecule: "CC(C)(C)c1ccc(C(=O)Nc2sc3c(c2C#N)CCC(=O)C3)cc1"
  assignedCategory: "range A"
- molecule: "O=C(Nc1ccccc1C(F)(F)F)C1=NCCCCN1"
  assignedCategory: "range C"
- molecule: "O=C1CCC(C(=O)N/N=C/c2ccc([N+](=O)[O-])cc2)N1 (stereo unspecified)"
  assignedCategory: "range C"

* * *

- Tested on: HCC-2998 colon
- assayText: NCI-60 one-dose screen, 48 h (100 = growth as untreated, 0 = no growth, -100 = all killed)
- experimentalParameters: 10 µM unless noted
Compounds without any hit were thinned out: in the full panel of roughly 83,000, 20% have a hit.
testReadout: growth (%)

- molecule: "CCOC(=O)c1c2c(n3ccc(NC(=O)CCN4CCCC4)cc13)C(=O)c1ncccc1C2=O"
  testReadout: "growth"
  numericValue: -83.5
- molecule: "CCCn1cnc2c(c1=N)C(c1ccc(Cl)cc1)c1sc3c(F)cccc3c1O2 (centres undefined)"
  testReadout: "growth"
  numericValue: -20
- molecule: "Cc1ccc(-c2nn(CC(=O)N3CCOCC3)c(N)c2C#N)cc1"
  testReadout: "growth"
  numericValue: 102
- molecule: "Cn1ccnc1C(=O)/C=C/c1ccc(C(=O)Nc2c(F)c(F)c(F)c(F)c2F)cc1"
  testReadout: "growth"
  numericValue: -4.74
- molecule: "Cc1ccc2c(c1)CC(O)CC1C(=O)N(CCO)CC(=O)N21 (centres undefined)"
  testReadout: "growth"
  numericValue: 104
- molecule: "Oc1ccc(C2OCCO2)c2cccnc12"
  testReadout: "growth"
  numericValue: 96.6
- molecule: "O=C1CCc2c(sc3[nH]c(=S)n(-c4cc(C(F)(F)F)cc(C(F)(F)F)c4)c(=O)c23)C1"
  testReadout: "growth"
  numericValue: -49.1
- molecule: "Fc1ccc(/C=C/c2cc(/C=C/c3ccc(F)cc3)n(-c3cc(F)cc(F)c3)n2)cc1"
  testReadout: "growth"
  numericValue: 93.4
- molecule: "c1ccc2cc(Cn3cc[n+](Cc4ccc5ccccc5c4)c3)ccc2c1"
  testReadout: "growth"
  numericValue: 26.5
- molecule: "CN1CC(c2ccccc2)C(C(=O)c2ccc(Br)cc2)C12C(=O)Nc1ccccc12 (centres undefined)"
  testReadout: "growth"
  numericValue: 99.7
- molecule: "Cn1cc(-c2nc(-c3c[nH]c4ccncc34)cs2)c2cc(F)ccc21"
  testReadout: "growth"
  numericValue: -80.6
- molecule: "CCCCCCCCNC(=O)[C@@H](N)CSCOC(C)=O"
  testReadout: "growth"
  numericValue: 101
- molecule: "O=c1c(/C=C/c2c(O)ccc3ccccc23)nnc2sc(-c3cccc([N+](=O)[O-])c3)nn12"
  testReadout: "growth"
  numericValue: 60.9
- molecule: "O=C1c2c(c3c4cccnc4[nH]c3c3ccc4ccccc4c23)C(=O)N1O"
  testReadout: "growth"
  numericValue: 77.2
- molecule: "C#C[C@]1(O)CC[C@H]2[C@@H]3CC=C4c5sc(-c6cccc(C)c6)nc5CC[C@]4(C)[C@H]3CC[C@@]21C"
  testReadout: "growth"
  numericValue: 72.5
- molecule: "COc1cccc(C2C(C#N)=C(N)Oc3c2ccc2ccccc32)c1 (centres undefined)"
  testReadout: "growth"
  numericValue: 23.6
- molecule: "COC12C=C/C(=C(/C(=O)OCc3ccccn3)C(=O)CCCCCCCCC3(OC)C=C/C(=C(/C(=O)OCc4ccccn4)C(=O)CCCCCCCC1)O3)O2"
  testReadout: "growth"
  numericValue: -82.6
- molecule: "Nc1n[nH]c2cccc(C#Cc3cccc(C(=O)Nc4ccc(Cl)c(C(F)(F)F)c4)c3)c12"
  testReadout: "growth"
  numericValue: 49.4
- molecule: "CC(=O)OCC(=O)O[C@@H]1C[C@]2(C(C)C)O[C@@]1(C)[C@@H]1CC[C@@H](C)[C@H]1[C@@H]2OC(=O)/C=C/c1ccccc1"
  testReadout: "growth"
  numericValue: 101

* * *

- Tested on: RPMI-8226 leukemia
- assayText: NCI-60 one-dose screen, 48 h (100 = growth as untreated, 0 = no growth, -100 = all killed)
- experimentalParameters: 10 µM unless noted
Compounds without any hit were thinned out: in the full panel of roughly 83,000, 20% have a hit.
Reported growth values for a set of compounds

- compound: "O=S(=O)(Nc1ccc(Br)cc1)c1ccc(-c2cnc(C3CC3)o2)cc1"
  growth [%]: 13.9
- compound: "CCOC(=O)c1c(N)sc2cc(O)ccc12"
  growth [%]: 110
- compound: "C=CC(=O)NCc1cccc(Nc2ncc(Br)c(NCCCNC(=O)C3CCC3)n2)c1"
  growth [%]: -14.7
- compound: "c1ccc2cc(Cn3cc[n+](Cc4ccc5ccccc5c4)c3)ccc2c1"
  growth [%]: -0.408
- compound: "COc1cc(C2CC(c3cccc(Nc4ccncc4)c3)=Nc3c(N)ncnc3N2)cc(OC)c1OC (stereo not given)"
  growth [%]: 71.8
